Can you tell me melting point for the items I'm about to list?

Solved cases below.
In: What measured melting point goes with `Cc1c(-n2ccnc2)n(CCOc2ccc(C(=O)O)cc2)c2ccccc12` ?
Out: > 300 °C

In: Which measured melting point value corresponds to `CC(=O)OCc1c(Br)cccc1N1CCc2c(sc3c2CC(C)(C)C3)C1=O` ?
Out: 126 to 128 °C

In: Look up melting point for this compound: O=C1CC2C1CC(O)C2Cl (centres undefined)
Out: 69 to 71 °C

In: I have this compound here, NCC1Cc2cccc(-c3ccccc3C(F)(F)F)c2O1 (centres undefined) , and I need its recorded melting point.
Out: 109 to 111 °C

In: // returns reported melting point for input `CCON1C(C)(C)CC(OC(=O)c2ccccc2)CC1(C)C`
Out: 76 to 78 °C

Count: 4. Required value per item: melting point.
1. Fc1cccc(F)c1-c1ncc(-c2ccc(Br)cc2)nn1
2. Cc1ccc(/C=C/c2nc(COc3ccc(CCCCn4ccnn4)cc3)co2)cc1
3. Cc1ccc(NC(=O)c2cccc(C(F)(F)F)c2)cc1-c1ccc2ccncc2c1
4. Cc1cccc(OS(=O)(=O)c2ccc(N3CCN(C)C3=O)cc2)c1

Out:
1. 180 to 181 °C
2. 154 to 155 °C
3. 148 to 152 °C
4. 123 to 125 °C

* * *

Record form. Attribute: melting point. Fill in for each entry.

Please review the following examples before continuing.
In: Quick one: melting point for `COc1cc(C2=C(c3c[nH]c4ncccc34)C(=O)NC2=O)cc(OC)c1OC` ?
Out: 162 °C

In: // returns reported melting point for input Cc1cc(N)cc(C)c1NC(=O)CN1CCN(CCCC(c2ccc(F)cc2)c2ccc(F)cc2)CC1CO (stereo not drawn)
Out: 85.2 °C

In: Would you mind telling me what melting point value was observed for `O=[N+]([O-])c1ccc(NN=C(c2ccc(O)cc2O)c2ccc(O)cc2O)c([N+](=O)[O-])c1` ?
Out: 240 to 242 °C

In: What melting point value was documented for this compound, `Nc1nnn(CC(F)(F)F)n1` ?
Out: 95 to 97 °C

In: Given the compound `CCC(C)(C)NC(Nc1ccc2ncsc2c1)=C(C#N)S(C)(=O)=O` , what is its reported melting point?
Out: 112 to 114 °C

Please give melting point, item by item, for the list that follows.
1. Cn1cc2c(O)c(C(=O)c3ccccc3)cnc2n1
2. N#Cc1cnn2c1NCC=C2c1cccc(C(F)(F)F)c1
3. C=CCc1ccc(C(NC(=O)OC(C)(C)C)C(=O)OC)cc1 (stereo not drawn)
4. COc1cc2c(cc1OC)C(c1c[nH]cn1)CCC2 (stereo not drawn)
5. COC(=O)C1Cc2c([nH]c3ccccc23)C(c2ccc(Cl)cc2Cl)N1 (stereo not drawn)
6. CCOC(=O)C=Cc1cccc(I)c1

Out:
1: 286 to 290 °C; 2: 175 to 177 °C; 3: 60.6 to 62 °C; 4: 140 °C; 5: 128 to 130 °C; 6: 36.3 °C

Report melting point for every entry below.
1. CS(=O)(=O)Nc1ccc(CCc2n[nH]c3c2c(=O)n(-c2ccccc2)c2ncccc32)cc1
2. O=C1C(CCO)Oc2cc(F)ccc2N1Cc1cccc(F)c1 (stereo not drawn)
3. CC1(C)C=Cc2c(c3ccccc3[nH]c2=O)O1
4. CC(C)Oc1ccc(-n2c(-c3ccc(C(=O)O)cc3)c(C(=O)O)c3cc(Oc4cccc(Cl)c4)ccc32)cc1
5. Cn1nc(C(=O)O)nc1NCCCOc1cccc(CN2CCCCC2)c1
6. CCOC(=O)C1CCCN(c2ccc([N+](=O)[O-])c(C=C3NC(=O)NC3=O)c2)C1 (stereo not drawn)
7. Cc1ccccc1OCCCN1CCC(C(O)(c2ccc(F)cc2)c2ccc(F)cc2)CC1
8. CCCCc1nn(-c2cc(C(=O)OC)ccc2Cl)c(=O)n1Cc1ccc(-c2ccccc2S(=O)(=O)NC(C)(C)C)cc1

Out:
1. 284 to 285 °C
2. 78 to 79 °C
3. 174 to 177 °C
4. 211 to 217 °C
5. 130 °C
6. 223 to 225 °C
7. 108 to 109 °C
8. 65 to 67 °C

For each of the compounds below, note its melting point.
1. CC(C)n1c(=O)ccc2cnc(Nc3ccc(N4CCN(C)CC4)cc3)nc21
2. COc1ccc(C(=O)c2cc(-c3ccc(NC(C)=O)cc3)c(N3CCOCC3)s2)cc1

Out:
1: 221 to 222 °C; 2: 198 °C
